Experiment: reversal of MRP1-mediated doxorubicin resistance, pilot screen, H69AR cells, doxorubicin co-treatment (AID 601)
Settings: H69AR cells + 2 uM doxorubicin, CellTiter-Glo, 72 h; measured here: viability with 2 uM doxorubicin; at 10 µM; stronger effect = lower value
observed.property: viability (%)

1. CC(C)(C)NCC(O)c1cc(O)cc(O)c1 (stereo not drawn): 91.4
2. CCn1c(SCC(=O)Nc2ccccc2N2CCCCC2)nc2c1c(=O)n(C)c(=O)n2C: 72.7
3. O=S1(=O)C=CC(Nc2cccc(Cl)c2)C1 (stereo not drawn): 65.9
4. CCc1nnc(NC(=O)CSc2nnc(Cc3ccccc3)n2-c2ccc(OC)cc2)s1: 90.9
5. COc1ccc(-c2oc3ncn(CCN4CCOCC4)c(=N)c3c2-c2ccc(OC)cc2)cc1: 21.5
6. O=C(CSc1nnc(-c2ccco2)n1CC1CCCO1)NC1CCCC1 (stereo not drawn): 86.8
7. CC(COc1ccccc1)N(CCCl)Cc1ccccc1 (stereo not drawn): 46.7
8. CC(C)C[C@H](NC(=O)Nc1cccc(C(F)(F)F)c1)C(=O)O: 91.8
9. COc1cc(C(N)=O)ccc1OCc1ccccc1: 90.8
10. CN(C)C(=O)Oc1ccc[n+](C)c1: 81.6
11. Clc1cccc(-c2nnc3sc(-c4ccccc4)nn23)c1: 92.6
12. CC(C)OP(=O)(c1ccc(N(C)C)cc1)C(O)c1ccccc1F (stereo not drawn): 87.5
13. O=S(=O)(c1ccc(N2CCN(c3ccc(F)cc3)CC2)cc1)N1CCCC1: 80.6
14. CSc1ccccc1NC(=O)CN(c1ccccc1)S(=O)(=O)N(C)C: 85.7
15. O=C(Cc1ccc(S(=O)(=O)N2CCCC2)s1)Nc1nc2c(s1)CCCC2: 94.7
16. Cc1ccccc1OCc1nc2ccccc2c(=O)n1/N=C/c1ccco1: 95.3
17. Cc1nn(-c2nc3ccccc3s2)c(C)c1Oc1ccccc1O: 67
18. CC(=O)Nc1ccc(S(=O)(=O)N2CCSC2c2ccccc2)cc1 (stereo not drawn): 86.4
19. O=C(Nc1ccc(Cl)cc1)N1CCSCC1: 89.6
20. CC1CC(C)CN(c2nc3c(c(=O)[nH]c(=O)n3C)n2CCCSc2nc3ccccc3s2)C1 (stereo not drawn): 106
21. COc1ccccc1C(=O)Nc1nc2ccc(S(C)(=O)=O)cc2s1: 85.6
22. CCCN(CCC)C(=O)CC(c1ccc(F)cc1)c1ccco1 (stereo not drawn): 86.8
23. COc1cc(-c2nc(S(=O)(=O)c3ccc(C)cc3)c(N(C)C)o2)cc(OC)c1OC: 86.3

###

Experiment: reversal of MRP1-mediated doxorubicin resistance, pilot screen, H69AR cells, doxorubicin co-treatment (AID 601)
Conditions: H69AR cells + 2 uM doxorubicin, CellTiter-Glo, 72 h; measured here: viability with 2 uM doxorubicin; at 10 µM; stronger effect = lower value
Reported viability values follow for various compounds
observed.property: viability (%)

1. Cc1ccc(-n2ncc3c(N4CCN(c5ccc(F)cc5)CC4)ncnc32)c(C)c1: 39.6
2. O=C(Cc1ccc(Br)cc1)N1CCCCCC1: 89.6
3. CC(C)c1nc(N2CCN(C(=O)c3ccco3)CC2)c2c3c(sc2n1)CCCC3: 78.5
4. CCOc1ccccc1C(=O)NCC(=O)OCC(=O)N1C(C)CCCC1C (stereo not drawn): 93.4
5. O=C(Nc1ccc2oc(=O)ccc2c1)c1cccnc1: 84.2
6. Cn1c(Cc2cccs2)nnc1SCC(=O)N1CCc2ccccc21: 94
7. Cc1cc(C)n(-c2nc3sc4c(c3c3nnc(SCC(N)=O)n23)CC(C)(C)OC4)n1: 86.8
8. CC(C)(Oc1ccc(CCNC(=O)c2ccc(Cl)cc2)cc1)C(=O)O: 96.8
9. CCSC1=C(C#N)C(c2cccc(OC)c2)CC(=O)N1 (stereo not drawn): 92.6
10. CCC(=O)Nc1ccc(NC(=O)CSc2nnnn2C(C)C)cc1: 89.8
11. COCCn1nnnc1C(c1ccccc1OC)N1CCc2ccccc2C1 (stereo not drawn): 88.8
12. Cc1cc(S(=O)(=O)n2cnc3ccccc32)c(C)cc1Cl: 92.4
13. CCOC(=O)c1oc2ccccc2c1NC(=O)c1cccc(OC)c1OC: 88.2
14. Cc1c(C(=O)NCc2ccccn2)sc2nc(-c3ccc(F)cc3)cn12: 82.3
15. CCOC(=O)c1[nH]c2ccc(C)cc2c1NC(=O)CN1CCCCC1: 87.1
16. OC[C@H]1O[C@@H](n2cnc3c(NC4CCCC4)ncnc32)[C@H](O)[C@@H]1O: 93
17. CCOC(=O)Nc1ccc(NS(=O)(=O)c2ccc(C)cc2)cc1: 96.1
18. COc1cc2c(cc1OC)CN(C(=O)COc1ccc(C#N)cc1)CC2: 96.8
19. Cc1cc(C(=O)Nc2cccc(O)c2)c(C)o1: 86.4
20. CCn1c(SCC(=O)NC)nnc1C(C)C: 85.8
21. CC(=O)c1ccccc1Oc1nc(CN2CCOCC2)nc2scc(-c3cccs3)c12: 17.1
22. CCSc1nc(O)c(C2OC(=O)c3c2ccc(OC)c3OC)c(=O)n1-c1ccccc1 (stereo not drawn): 85.1
23. N#Cc1nc(-c2cccs2)oc1NCc1ccc(Cl)cc1: 87.9
